System: CCRF-CEM
experimental_details: NCI tumour cell line growth inhibition, 48 h
Calls of active or inactive are those of the source. No stated cut-off is given here; in the data, active = GI50 up to about 1.1 µM and inactive = higher.
Possible outcomes: class 1 = active, class 0 = inactive

{"compound": "Oc1ncnc2c1CCCN2", "target_of_assay": "CCRF-CEM", "assigned_category": "class 0"}
{"compound": "Cc1ccc(Nc2ccc(Nc3ccc(C)cc3)c3c2C(=O)c2c(O)ccc(O)c2C3=O)cc1", "target_of_assay": "CCRF-CEM", "assigned_category": "class 0"}
{"compound": "c1ccc2c(c1)c1ccccc1n2Cn1c2ccccc2c2ccccc21", "target_of_assay": "CCRF-CEM", "assigned_category": "class 0"}
{"compound": "CN1CC(=O)N(C)c2ncn(Cc3ccccc3)c2C1=O", "target_of_assay": "CCRF-CEM", "assigned_category": "class 0"}
{"compound": "c1ccc(CCCCNCc2cc(CNCCCCc3ccccc3)cc(CNCCCCc3ccccc3)c2)cc1", "target_of_assay": "CCRF-CEM", "assigned_category": "class 1"}
{"compound": "Nc1ccc2c(c1)nc1n2C(c2c(F)cccc2F)SC1 (stereo not drawn)", "target_of_assay": "CCRF-CEM", "assigned_category": "class 0"}
{"compound": "Cc1ccccc1-n1c(N)c(-c2nc3ccccc3[nH]2)sc1=S", "target_of_assay": "CCRF-CEM", "assigned_category": "class 0"}
{"compound": "CC(O)CC(O)(C(F)(F)F)C(F)(F)F (stereo not drawn)", "target_of_assay": "CCRF-CEM", "assigned_category": "class 0"}
{"compound": "CC(C)OP(=O)(OC(C)C)/C(=N/Nc1ccc([N+](=O)[O-])cc1)Nc1ccccc1", "target_of_assay": "CCRF-CEM", "assigned_category": "class 0"}
{"compound": "N#Cc1c(N2CCCC2)nsc1NCc1ccccc1", "target_of_assay": "CCRF-CEM", "assigned_category": "class 0"}
{"compound": "COC(CC1(CCNc2ccccc2)C(=O)N(COCC[Si](C)(C)C)c2ccccc21)OC (stereo not drawn)", "target_of_assay": "CCRF-CEM", "assigned_category": "class 0"}
{"compound": "Cn1c(=O)nc2n(-c3ccc(Cl)c(C(F)(F)F)c3)c3ccccc3nc-2c1=O", "target_of_assay": "CCRF-CEM", "assigned_category": "class 0"}
{"compound": "Cc1c(-c2cc3n(n2)C(c2cccs2)C(C#N)=C(c2ccccc2)N3)c(=O)n(-c2ccccc2)n1C (stereo not drawn)", "target_of_assay": "CCRF-CEM", "assigned_category": "class 0"}
{"compound": "CSc1nc(NC2CC2)c2c(n1)Sc1nc3ccccc3n1N=C2", "target_of_assay": "CCRF-CEM", "assigned_category": "class 0"}
{"compound": "NCCCN1c2ccccc2Sc2ccc(Cl)cc21", "target_of_assay": "CCRF-CEM", "assigned_category": "class 0"}
{"compound": "CC1=NNC(=O)C1C1CC(c2c[nH]c3ccccc23)=NN(c2ccccc2)C1=O (stereo not drawn)", "target_of_assay": "CCRF-CEM", "assigned_category": "class 0"}
{"compound": "Cc1c2cc[n+](C)cc2c(COC2OC(CO)C(O)C2O)c2c3ccccc3n(C)c12 (stereo not drawn)", "target_of_assay": "CCRF-CEM", "assigned_category": "class 0"}
{"compound": "Cc1cccc2sc(NC(=O)c3cc([N+](=O)[O-])ccc3Cl)nc12", "target_of_assay": "CCRF-CEM", "assigned_category": "class 1"}
{"compound": "CCOC(=O)c1cc(=O)c2cccc3c2n1CCS3", "target_of_assay": "CCRF-CEM", "assigned_category": "class 0"}
{"compound": "C/C(=N\\NC(=S)N(C)C)c1nc2cccnc2[nH]1", "target_of_assay": "CCRF-CEM", "assigned_category": "class 1"}
{"compound": "O=C1CCC(C(=O)O)C2=C1CCCC2 (stereo not drawn)", "target_of_assay": "CCRF-CEM", "assigned_category": "class 0"}
{"compound": "CC(=O)Nc1ccc(C2CC(c3ccc([N+](=O)[O-])cc3)=Nc3ccccc3[S+]2[O-])cc1 (stereo not drawn)", "target_of_assay": "CCRF-CEM", "assigned_category": "class 0"}
{"compound": "COc1cc(/C=C/c2sc3ccccc3[n+]2C)ccc1N(C)C", "target_of_assay": "CCRF-CEM", "assigned_category": "class 0"}
